# Species: Homo sapiens
# procedure-summary: Selectivity index, ratio of IC50 for N-terminal His6-tagged human full length recombinant LCK expressed in baculovirus infected Sf21 cells to IC50 for IRAK4 (unknown origin)
outcome-measure: Ratio IC50
Answers are plain numbers.

{"columns": ["compound-string", "experimental-result"],
 "data": [
  ["CC(C)Nc1cc(Nc2ccc3ncsc3c2)ncc1C(=O)NCCc1ccc(S(N)(=O)=O)cc1", 280],
  ["CC(C)Nc1cc(Nc2ccc3ncsc3c2)ncc1C(=O)NC[C@@H](F)C(C)(C)O", 270],
  ["CC(C)(O)CCNC(=O)c1cnc(Nc2ccc3ncsc3c2)cc1NC1CC1", 200],
  ["CC(C)(O)[C@@H](F)CNC(=O)c1cnc(Nc2ccc3ncsc3c2)cc1NC1CC1", 110],
  ["CC(C)(O)[C@H](F)CNC(=O)c1cnc(Nc2ccc3ncsc3c2)cc1NC1CC1", 170]
]}

# batch: return Ratio IC50 for each of the 4 compounds below
1. CC(C)Nc1cc(Nc2ccc3ncsc3c2)ncc1C(=O)NCCCO
2. CC(C)Nc1cc(Nc2ccc3nsnc3c2)ncc1C(=O)NC[C@@H](F)C(C)(C)O
3. CC(C)Nc1cc(Nc2ccc3ncsc3c2)ncc1C(=O)NCC(F)(F)C(C)(C)O
4. CNC(=O)c1cnc(Nc2ccc3ncsc3c2)cc1NC(C)C

a:
16
93
320
28

---

# procedure-summary: Stability in human liver microsomes assessed as parent compound remaining
# Format: ADME, Microsome
Exercise: state measured Stability for each of the compounds provided.
One number for each entry, in %.

Some solved cases for reference:
{"columns": ["compound-string", "unit-descriptor", "Stability"],
 "data": [
  ["CC(C)Nc1cc(Nc2ccc3ncsc3c2)ncc1C(=O)NC[C@@H](F)C(C)(C)O", "%", 92],
  ["CC(C)Nc1cc(Nc2ccc3nonc3c2)ncc1C(=O)NC[C@@H](F)C(C)(C)O", "%", 93]
]}

We now examine a further compound.
q: Recorded Stability of CC(C)Nc1cc(Nc2ccc3ncsc3c2)ncc1C(=O)NCCCO , please.
a: 84

---

# procedure-summary: AUC in mouse at 3 mg/kg, po via gavage measured up to 24 hrs by LC-MS analysis
# Assay type: ADME, organism-based
# Parameters: dose 3 mg/kg, time < 24 hr, route oral
# test-conditions: in vivo
outcome-measure: AUC at 24 h (µM·h)
One number for each entry, in µM·h.

q: Recorded AUC at 24 h of CC(C)Nc1cc(Nc2ccc3nonc3c2)ncc1C(=O)NC[C@@H](F)C(C)(C)O , please.
a: 4.6

---

# procedure-summary: Volume of distribution at steady state in mouse at 2 mg/kg, iv administered as infusion or 3 mg/kg, po via gavage measured up to 24 hrs by LC-MS analysis
# Format: ADME, organism-based
# test-conditions: in vivo, read-out: Vdss
outcome-measure: Vd (L/kg)
One number for each entry, in L/kg.

q: Recorded Vd of CC(C)Nc1cc(Nc2ccc3nonc3c2)ncc1C(=O)NC[C@@H](F)C(C)(C)O , please.
a: 3.2

---

# procedure-summary: Drug uptake in imiquimod-induced C57BL/6 mouse model of psoriasis at 3 mg/kg, po dosed via gavage twice daily and measured after 8 hrs by LC-MS analysis
# Format: ADME, organism-based
# test-conditions: in vivo, read-out: Drug uptake
outcome-measure: concentration at 8 h (nM)
Answers are plain numbers, in nM.

q: Recorded concentration at 8 h of CC(C)Nc1cc(Nc2nc3ccnn3cc2F)ncc1C(=O)NC[C@@H](F)C(C)(C)O , please.
a: 31

meta.source: ChEMBL document CHEMBL4622963
